- System: A549
- Test Description: Antiproliferative assay (resazurin, 72 h)
- Assay type: cell-based, human
- Condition Notes: Homo sapiens, A549, Table 1, mean ± SE
The entries below come with measured IC50 values attached.

Entry Smiles: COc1cc(Nc2cc(C)nc3nc(NCCc4ccc(F)cc4)nn23)cc(OC)c1OC
IC50: > 10 µM

Entry Smiles: COc1cc(Nc2cc(C)nc3nc(NCCc4ccccc4)nn23)cc(OC)c1OC
IC50: 2.01 µM

Shift focus to the following entry.
Lookup: Return reported IC50; argument: `COc1cc(Nc2cc(C)nc3nc(-c4ccc(C)cc4)nn23)cc(OC)c1OC`
Found: > 10 µM
